Task for the reader: assign each of the following compounds its reported melting point.

O=C(O)/C(=C/c1cccc2ccccc12)c1ccccc1	160 to 161 °C
Fc1ccc2nc(C(F)(F)F)cc(Cl)c2c1	78 to 82 °C
CC1=CC(=O)C(C(=O)OC2CC(C)CCC2C(C)C)C(C)C1C(=O)OC1CC(C)CCC1C(C)C (stereo not given)	185 to 186 °C
O=C(O)CNc1ccc(Br)cc1C(=O)O	211 to 215 °C
CC(=O)C(=Nc1ccccc1)c1cc(C(=Nc2ccccc2)C(C)=O)c([N+](=O)[O-])cc1[N+](=O)[O-]	174 to 175 °C
Cc1csc(C(=O)O)c1	124 to 125 °C
O=C(O)c1ccccc1-n1ccnc1	198 to 200 °C
c1cc2c(ccc3nonc32)nn1	139 to 141 °C
CC(=O)Cc1ncn(-c2cc(C)on2)n1	138 to 140 °C

Switching to the query record.
Provide only the value of recorded melting point for NNS(=O)(=O)c1ccc(-c2ccccn2)s1
109 to 111 °C

###

Task for the reader: assign each of the following compounds its reported melting point.

Recorded melting point, per entry:
Cc1n[nH]c(C)c1C	137 to 139 °C
OCc1cccc(CN2CCCCC2)c1	67 to 69 °C

// input: 4 compounds below; output: melting point for each
1. O=[N+]([O-])c1ccccc1OCCCBr
2. Clc1cc2nsnc2cc1CBr
3. Nc1c(F)c(F)c(Br)c(F)c1F
4. CCOC(=O)C(C#N)=C(N)c1cc2cc(Br)ccc2oc1=O

["37 to 38 °C", "75 to 77 °C", "59 to 61 °C", "270 to 272 °C"]

Provide only the value of recorded melting point for CC(=O)c1ccc(N2CCNCC2)cc1
107 to 110 °C

###

Task for the reader: assign each of the following molecules its reported melting point.

Cc1nc(-c2ccc(C(=O)Cl)cc2)no1	112 to 113 °C
Brc1n[nH]c2nc3ccccc3nc12	273 to 276 °C
Nc1c(F)cc(Cl)cc1Br	41 to 43 °C
O=c1n2ccccc2nc2nc3ccccc3n12	338 to 340 °C

Provide only the value of recorded melting point for O=C(Nc1ccc(F)cc1)Nc1nnc(-c2ccc(Cl)cc2)o1
268 to 270 °C

###

MEASUREMENT_KIND: melting point

Recorded melting point, per entry:
Cc1ccc(N)c(C(=O)O)c1	174 to 177 °C
NC(COc1ccc(C2SCCS2)cc1)=NO	113 to 115 °C
CC(=O)c1csc(-c2cc(C)on2)n1	130 to 132 °C
OC1(c2ccc(Cl)cc2)CCNCC1	139 to 141 °C

// input: 2 compounds below; output: melting point for each
1. c1cncc(Cn2cccc2)c1
2. NNc1nc(N)nc(C23CC4CC(CC(C4)C2)C3)n1

1: 59 to 64 °C; 2: 265 to 267 °C

###

Task for the reader: assign each of the following compounds its reported melting point.

CCOC(=O)c1sc2sc(C#N)c(C)c2c1C	155 to 157 °C

// input: 6 compounds below; output: melting point for each
1. CCOC(=O)c1c(Cl)cc(C)cc1N1CCCC1
2. O=C(Nc1nnc(-c2ccc(Cl)cc2)o1)c1ccc(F)cc1
3. CCOc1ccc(-c2nnc3n2NCS3)cc1
4. Cc1noc(-c2ccccc2Br)n1
5. O=[N+]([O-])c1ccc(OCCCBr)cc1
6. O=S(=O)(Cl)c1ccc(-c2nsc(Cl)n2)s1

1. 78 to 79 °C
2. 282 to 284 °C
3. 118 to 120 °C
4. 43 to 44 °C
5. 56 to 58 °C
6. 71 to 74 °C

###

Task for the reader: assign each of the following compounds its reported melting point.

Recorded melting point, per entry:
O=C(O)C1(c2ccc(F)cc2)CCCC1	160 to 165 °C
Cc1ccc(S(=O)(=O)OC2CCC3C4CCC5CC(=O)CCC5(C)C4CCC23C)cc1 (stereo not given)	179 to 180 °C
CCC1(O)CCC2(C)C(CCC3C4CCC(=O)C4(C)CCC32)C1 (stereo not given)	113 to 116 °C
O=C(Oc1c(F)c(F)c(F)c(F)c1F)c1ccccc1OC1CCOCC1	62 to 64 °C

Provide only the value of recorded melting point for COC(=O)c1ccc(Oc2cc(Cl)cc(Cl)c2)o1
86 to 89 °C

###

Label F if melting point falls below 60 °C; label T in every other case.

# bool: melting point of C=CCCCCCCCCCCC >= 60 °C
F

# bool: melting point of CCCCN(CCCC)C(C(N)=O)c1ccc(OC)cc1 (configuration not stated) >= 60 °C
T

# bool: melting point of CCCCCCCC(=O)Oc1c(Br)cc(C#N)cc1Br >= 60 °C
F

# bool: melting point of CC(=O)N1CCC(C(=O)Cl)CC1 >= 60 °C
T

###

MEASUREMENT_KIND: melting point

O=C(O)C=Cc1ccc(Cl)cc1Cl	245 to 248 °C
Cc1nccc(-c2cccc(N)c2)n1	108 to 109 °C
CC(=O)OC1C(O)C2=C(C(=O)C(OC(C)=O)C3(CC3C)C2=O)C2(C)CCC(OC(C)=O)C(C)(C)C12 (centres undefined)	116 to 117 °C
O=C(CSc1nc(=O)[nH]c2c1CCCC2)c1ccccc1	250 to 255 °C
O=C(O)c1cccc(Cl)n1	194 °C

// input: 3 compounds below; output: melting point for each
1. c1n[nH]c2c1CSC2
2. CS(=O)(=O)c1ccc2ccn(O)c2c1
3. O=C(O)C=Cc1cc(Br)ccc1F

132 to 133 °C
174 to 176 °C
195 to 199 °C

###

Task for the reader: assign each of the following compounds its reported melting point.
One number for each entry, in °C.

Recorded melting point, per entry:
COc1ccc(C2CC(=O)c3c(O)cc(OC4OC(COC5OC(C)C(O)C(O)C5O)C(O)C(O)C4O)cc3O2)cc1O (stereo unspecified)	262
O=C(CCl)OC(=O)CCl	57.5
CC(=O)CCc1oc2ccccc2c1-c1ccc(C)o1	54
NNc1ccc(C(=O)O)cc1	205

// input: 6 compounds below; output: melting point for each
1. Nc1cc(Cl)nc(Cl)c1
2. O=S(=O)(O)CCCNC(CO)(CO)CO
3. CC(C)Oc1cc(N)c(Cl)cc1Cl
4. Cc1cc(Br)ncc1I
5. Cc1cc(C(C)(C)C)c(C)cc1O
6. CC(=O)c1cc(C)cc([N+](=O)[O-])c1O

1. 174
2. 240
3. 42
4. 51
5. 71.2
6. 135

// input: 6 compounds below; output: melting point for each
1. CCN(O)CC
2. CC(NC(CCc1ccccc1)C(=O)O)C(=O)N1CCCC1C(=O)O (stereo unspecified)
3. CCCCCC=CCC=CCCCCCCCC(=O)OC
4. N#Cc1cc(S(=O)(=O)Cl)ccc1F
5. Cc1ccc(C(=O)C2=NOC3C(=O)N(c4ccc(C(=O)O)cc4)C(=O)C23)cc1 (stereo unspecified)
6. COc1c(Cl)cc([N+](=O)[O-])c(OC)c1C(=O)O

1: 10; 2: 150; 3: -35; 4: 69; 5: 201; 6: 131

###

MEASUREMENT_KIND: melting point

Recorded melting point, per entry:
CC(O)C1(C)CCC2=C1CCC1C2CCC2(C)CC(O)CCC12C (configuration not stated)	205 to 207 °C
O=Cc1cc(Br)cs1	46 to 47 °C
NC(=O)c1cccc2c1OCCO2	130 to 132 °C

// input: 7 molecules below; output: melting point for each
1. Brc1ccc(N2CCCCC2)cc1
2. Cc1ccc(Sc2ccc(C(=O)c3ccccc3)cc2)cc1
3. CC(=O)c1sccc1Br
4. COc1cccc(O)c1C(C)=O
5. COc1ccc(-c2csc(/C(C#N)=C/c3ccc(Cl)cc3Cl)n2)cc1
6. CC12CCC3C(CCC4CC(O)CCC43C)C1CCC2=O (configuration not stated)
7. O=C1c2ccccc2-c2ccc([N+](=O)[O-])cc21

["75 to 76 °C", "73 to 87 °C", "43 °C", "58 to 60 °C", "142 °C", "185 °C", "222 to 223 °C"]

// input: 2 molecules below; output: melting point for each
1. FC(F)(F)c1cccnc1S
2. COc1cc2nc(N3CCN(C(=O)C4CCCO4)CC3)nc(N)c2cc1OC (configuration not stated)

180 to 182 °C
273 °C

###

Task for the reader: assign each of the following compounds its reported melting point.
Give bare numbers, in °C.

Recorded melting point, per entry:
CCCCCCCCCCCC(=O)Oc1ccccc1	24.5
CC(CC(=O)O)C1CCC2C3C=CC4CC(O)CCC4(C)C3CC(O)C12C (centres undefined)	181
CC(=O)C=NO	69
COc1cc(OC)c([N+](=O)[O-])c(OC)c1	152
CCOC(CNC1=CC(=O)C=CC1=O)OCC	70
CC1=CC(=O)CCC1	-21
Nc1ccc(Cc2ccc(N)c(Cl)c2)cc1Cl	110
c1ccc(NNc2ccccc2)cc1	131

// input: 6 compounds below; output: melting point for each
1. CC(=O)N1C(=O)[C@@](O)(c2coc3ccccc23)c2ccccc21
2. CC#CC(C)C
3. CC1CCC(C(C)C)C(OC(=O)C(C=Cc2ccccc2)C(=O)c2ccccc2)C1 (centres undefined)
4. COc1cc(/C=C/c2cc(C)cc(OC)c2O)ccc1O
5. Nc1ccc(-c2ccc(NNc3ccccc3)cc2)cc1
6. CC1COCc2cc3c(cc21)C(C)(C)C(C)C3(C)C (centres undefined)

[110, -110, 104, 124, 140, -5]
